The measured values listed here are drawn from patent US12180207B2.

Target: recombinant human FGFR2 cytoplasmic domain (amino acids 403-822) (Homo sapiens (Human))
Sequence (P21802 402-821): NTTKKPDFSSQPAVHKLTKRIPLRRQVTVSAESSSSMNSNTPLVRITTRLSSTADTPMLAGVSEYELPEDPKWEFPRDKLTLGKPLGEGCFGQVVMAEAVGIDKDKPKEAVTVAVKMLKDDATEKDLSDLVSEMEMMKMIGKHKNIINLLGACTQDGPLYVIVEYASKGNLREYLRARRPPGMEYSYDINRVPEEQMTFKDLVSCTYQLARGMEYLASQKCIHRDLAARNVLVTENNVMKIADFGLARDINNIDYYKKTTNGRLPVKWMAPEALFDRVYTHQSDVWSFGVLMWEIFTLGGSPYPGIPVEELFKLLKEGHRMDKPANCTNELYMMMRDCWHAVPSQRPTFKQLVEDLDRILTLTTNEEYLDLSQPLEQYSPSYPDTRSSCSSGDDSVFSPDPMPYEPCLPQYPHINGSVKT
Experiment: FGFR2 enzyme activity assay (LanthaScreen TR-FRET)
Conditions: 15 μM ATP, 20 min incubation at 22° C., average of multiple determinations if made, read-out: FGFR2 Enz FRET IC50
Recorded pIC50 values for a group of compounds are listed next.
In simple prose, pIC50 is minus the logarithm base ten of a concentration in moles per litre.

C=CC(=O)Nc1ccc(C(=O)N2CC[C@H](n3cc(-c4cc(OC)c5c(C#N)cnn5c4)cn3)C2)cc1: 8.30

Inquiry: Give the reported pIC50 for this compound. C=CC(=O)N1CC[C@@H](C(=O)N2CC[C@@H](n3cc(-c4cc(OC)c5c(C#N)cnn5c4)cn3)C2)C1
Reply text: 8.10

Inquiry: Assign pIC50 to the following record: C=CC(=O)N1CC(C)(C(=O)N2CCC(n3ncc(-c4cc(OC)c5c(C#N)cnn5c4)c3C)CC2)C1
Reply text: 7.02

Inquiry: Name the recorded pIC50 of the item C=CC(=O)N[C@H]1C[C@H](C(=O)N2CC(n3cc(-c4cc(OC)c5c(C#N)cnn5c4)cn3)C2)C1 in your answer.
Reply text: 7.96

Inquiry: Give the measured pIC50 for COc1cc(-c2cnn(C3CCN(CC4CN(C(=O)/C=C/CN5CCCCC5)C4)CC3)c2)cn2ncc(C#N)c12
Reply text: 8.00

Inquiry: Provide pIC50 value for the following compound: C=CC(=O)N1CC(C(=O)N2CCC(n3cc(-c4cc(-c5ccc(NC(=O)C6CC6)cc5F)c5c(C#N)cnn5c4)cn3)CC2)C1
Reply text: 8.52

Inquiry: Look up pIC50 of COc1cc(-c2cnc(N3CCN(C(=O)C4(F)CN(C(=O)/C=C/CN(C)C)C4)CC3)cc2C)cn2ncc(C#N)c12 and report it.
Reply text: 7.10

Inquiry: Answer with the recorded pIC50 of C=CC(=O)N1CC(CN2CCC(n3ncc(-c4cc(OC)c5c(Cl)cnn5c4)c3C)CC2)C1 only.
Reply text: 6.62
